experiment: gradient 5% acetonitrile 3 min, to 50% in 2 min, to 85% in 15 min, held 3 min, 100 µL/min; conditions: column: Zorbax Extend-C18 2.1 x 50 mm; eluents: water / acetonitrile, 0.1% formic acid
metric: RP-LC retention time (s)
I only need the number, in s, no unit after it.

Exam item: Annotate the compound `Cc1ccc2c(=O)c(C(=O)N3CCCC3)cn(CC(=O)Nc3cc(F)ccc3F)c2n1` with its measured RP-LC retention time.
Marked response: 703

Others:
Exam item: Given COc1ccc(CN2C(=O)C3(CCOCC3)CC2c2nnnn2C(C)(C)C)cc1 (stereo not given) , respond with its RP-LC retention time.
Marked response: 760

Exam item: Look up RP-LC retention time of `Cn1nc(-c2nnc(-c3ccccc3F)o2)c2c1CCN(S(=O)(=O)c1ccc(F)c(Cl)c1)C2` and report it.
Marked response: 990

Exam item: Item CCOc1ccc(C(=O)N2CCCC2c2nc(-c3ccc(OC)c(OC)c3)no2)cc1OCC (stereo not given) : provide RP-LC retention time
Marked response: 916

Exam item: Look up and report measured RP-LC retention time for this entry: `CC(C)CN(CC(C)C)c1nc(-c2ccc([N+](=O)[O-])cc2)nc2ccccc12`
Marked response: 1250

Exam item: Find the measured RP-LC retention time of CC(=O)c1ccc(S(=O)(=O)N2CCCC(C)(C(=O)NCc3ccccc3C)C2)cc1 (stereo not given) and report it.
Marked response: 588

Exam item: Determine its reported RP-LC retention time: `CCN1c2ccccc2C(=O)NC12CCN(C(=O)c1ccccc1F)CC2`
Marked response: 749

Exam item: Return RP-LC retention time (reported value) for this compound: `CC(C)(C)c1cc(C(=O)NCc2ccccc2)nc2ccnn12`
Marked response: 1140

Exam item: Give me measured RP-LC retention time, please, for this compound: `CCc1ccc(C2=C(C)C(N3CCCN(C(=O)NCCCOC)CC3)=NS2(=O)=O)cc1`
Marked response: 761

Exam item: Quote RP-LC retention time reported for `Cn1nc(C(C)(C)C)cc1C(=O)N[C@@H](Cc1cccc(Cl)c1)C(=O)NCC#N` please.
Marked response: 946

Exam item: Report RP-LC retention time, nothing else, for this compound: `O=C(Cc1cn(Cc2ccccc2)c2ccccc12)NCc1cccs1`
Marked response: 929

----------
experiment: gradient 5% acetonitrile 3 min, to 50% in 2 min, to 85% in 15 min, held 3 min, 100 µL/min; conditions: column: Zorbax Extend-C18 2.1 x 50 mm; eluents: water / acetonitrile, 0.1% formic acid
metric: RP-LC retention time (s)
Record the value in s, omitting the unit from your answer.

Observe how each entry below is paired with its result.
Exam item: Determine from records and report RP-LC retention time for `Cc1ccc2nc(NC3=NCN(Cc4cccnc4)CN3)nc(C)c2c1`
Marked response: 587

Exam item: Answer with reported RP-LC retention time of CC(NC(=O)CCc1ccccc1)C(=O)Nc1nc2ccccc2[nH]1 (stereo unspecified)
Marked response: 654

Exam item: // Input: `Cc1nc2cc3c(cc2n1CC(=O)Nc1ccc2c(c1)OCCCO2)OCCO3` . Output its RP-LC retention time only.
Marked response: 618

Exam item: In one line, give reported RP-LC retention time of the entry CC1CC(C)OP(=O)(OCCC#N)O1 (stereo unspecified) .
Marked response: 650

Exam item: Note RP-LC retention time for the molecule shown: `CCOC(=O)c1cnc2nc(C)ccc2c1Nc1ccc(F)cc1`
Marked response: 672

Pending molecule:
Exam item: Assign RP-LC retention time to the following record: CC1CCCCN1CCNC(=O)c1nc2nc(-c3ccco3)cc(C(F)(F)F)n2n1 (stereo unspecified)
Marked response: 628

Value source: the METLIN SMRT retention time set (Domingo-Almenara et al. 2019)
